biological target: BCRP (Homo sapiens); assay: BCRP efflux substrate; type: in vitro ADME; conditions: not told
QUANTITY: efflux ratio

- MOLECULE: "CC(C)Oc1ccc(-c2ccc3ncc4c(c3c2)n([C@@H]2CCN(C)CC2(F)F)c(=O)n4C)cn1"
  efflux ratio: "< 1"
- MOLECULE: "COc1ccc(-c2ccc3ncc4c(c3c2)n([C@H]2CCN(C(C)C)CC2(F)F)c(=O)n4C)cn1"
  efflux ratio: "< 1"
- MOLECULE: "CN1CC[C@@H](n2c(=O)n(C)c3cnc4ccc(-c5ccc(N6C[C@@H]7[C@H]6CCN7C)nc5)cc4c32)C(F)(F)C1"
  efflux ratio: "< 1"

Qu. Recall the recorded efflux ratio for `COc1ccc(-c2cc3c(cc2F)ncc2c3n([C@H]3CCN(C)CC3(F)F)c(=O)n2C)cn1` with BCRP (Homo sapiens) and state it.
Ans. < 1

Qu. Recall the recorded efflux ratio for `COc1ccc(-c2cc3c(cc2F)ncc2c3n([C@@H]3CCN(C)CC3(F)F)c(=O)n2C)cn1` with BCRP (Homo sapiens) and state it.
Ans. < 1

Qu. Recall the recorded efflux ratio for CC(C)Oc1ccc(-c2ccc3ncc4c(c3c2)n(C2CCN(C)CC2(F)F)c(=O)n4C)cn1 (racemic) with BCRP (Homo sapiens) and state it.
Ans. < 1

Qu. Recall the recorded efflux ratio for `COc1ccc(-c2ccc3ncc4c(c3c2)n([C@@H]2CCN(C(C)C)CC2(F)F)c(=O)n4C)cn1` with BCRP (Homo sapiens) and state it.
Ans. < 1

Qu. Recall the recorded efflux ratio for `CN1CC[C@@H](n2c(=O)n(C)c3cnc4ccc(-c5ccc(OC6CC6)nc5)cc4c32)C(F)(F)C1` with BCRP (Homo sapiens) and state it.
Ans. < 1

Qu. Recall the recorded efflux ratio for `CN1CC[C@H](n2c(=O)n(C)c3cnc4ccc(-c5ccc(N6CC(N(C)C)C6)nc5)cc4c32)C(F)(F)C1` with BCRP (Homo sapiens) and state it.
Ans. < 1

Qu. Recall the recorded efflux ratio for `CN1CC[C@H](n2c(=O)n(C)c3cnc4ccc(-c5ccc(OC6CC6)nc5)cc4c32)C(F)(F)C1` with BCRP (Homo sapiens) and state it.
Ans. < 1

====

biological target: BCRP (Homo sapiens, UniProt Q9UNQ0); assay: BCRP efflux substrate; type: in vitro ADME; settings: not told
Sequence (Q9UNQ0 whole entry): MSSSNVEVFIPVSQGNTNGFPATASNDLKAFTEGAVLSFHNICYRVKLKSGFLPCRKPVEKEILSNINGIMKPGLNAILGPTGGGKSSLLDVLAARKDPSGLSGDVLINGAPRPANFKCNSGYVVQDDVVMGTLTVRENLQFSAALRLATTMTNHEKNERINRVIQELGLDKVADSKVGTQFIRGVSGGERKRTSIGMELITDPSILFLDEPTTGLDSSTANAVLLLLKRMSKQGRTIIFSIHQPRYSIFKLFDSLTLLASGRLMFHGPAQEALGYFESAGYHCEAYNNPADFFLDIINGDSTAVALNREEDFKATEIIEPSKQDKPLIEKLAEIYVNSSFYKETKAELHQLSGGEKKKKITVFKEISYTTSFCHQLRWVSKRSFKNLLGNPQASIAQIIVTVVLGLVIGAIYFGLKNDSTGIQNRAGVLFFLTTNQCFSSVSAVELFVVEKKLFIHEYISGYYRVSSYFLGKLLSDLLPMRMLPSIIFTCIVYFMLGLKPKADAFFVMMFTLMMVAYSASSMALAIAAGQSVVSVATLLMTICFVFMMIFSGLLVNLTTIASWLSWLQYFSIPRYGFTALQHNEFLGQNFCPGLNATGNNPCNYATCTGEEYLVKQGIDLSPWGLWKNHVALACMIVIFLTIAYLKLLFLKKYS
QUANTITY: efflux ratio

- COMPOUND: "COc1ccc(-c2cc3c(cc2F)ncc2c3n(C3CCN(C)CC3(F)F)c(=O)n2C)cn1 (racemic) [Compound 5]"
  TEST SYSTEM: "BCRP (Homo sapiens, UniProt Q9UNQ0)"
  efflux ratio: "< 1"
- COMPOUND: "CN1CC[C@H](n2c(=O)n(C)c3cnc4ccc(-c5ccc(N(C)C)nc5)cc4c32)C(F)(F)C1 [Compound 35]"
  TEST SYSTEM: "BCRP (Homo sapiens, UniProt Q9UNQ0)"
  efflux ratio: "< 1"
- COMPOUND: "CN1CCC(n2c(=O)n(C)c3cnc4ccc(-c5ccc(OC6CC6)nc5)cc4c32)C(F)(F)C1 (racemic) [Compound 10]"
  TEST SYSTEM: "BCRP (Homo sapiens, UniProt Q9UNQ0)"
  efflux ratio: "< 1"
- COMPOUND: "CN1CCC(n2c(=O)n(C)c3cnc4ccc(-c5ccc(N6CC7C6CCN7C)nc5)cc4c32)C(F)(F)C1 (racemic) [Compound 13]"
  TEST SYSTEM: "BCRP (Homo sapiens, UniProt Q9UNQ0)"
  efflux ratio: "< 1"
- COMPOUND: "CCN1CC[C@H](n2c(=O)n(C)c3cnc4ccc(-c5ccc(OC)nc5)cc4c32)C(F)(F)C1 [Compound 29]"
  TEST SYSTEM: "BCRP (Homo sapiens, UniProt Q9UNQ0)"
  efflux ratio: "< 1"

Qu. Recall the recorded efflux ratio for CCOc1ccc(-c2ccc3ncc4c(c3c2)n([C@@H]2CCN(C)CC2(F)F)c(=O)n4C)cn1 [Compound 17] with BCRP (Homo sapiens, UniProt Q9UNQ0) and state it.
Ans. < 1

Qu. Recall the recorded efflux ratio for CN1CC[C@H](n2c(=O)n(C)c3cnc4ccc(-c5ccc(N6C[C@H]7[C@@H]6CCN7C)nc5)cc4c32)C(F)(F)C1 [Compound 41] with BCRP (Homo sapiens, UniProt Q9UNQ0) and state it.
Ans. < 1

Where do these numbers come from? They come from patent US11919899B2.
